# Test system: parent strain (SAWy518)
Counter-ions that a name gives are not always drawn.
Kindly return rule met if reported Offscreen_42hr is no lower than 0.9; return rule not met if it is lower.

INSERT INTO results (compound, class_assignment) VALUES
  ('O=[N+]([O-])c1ccc(CNc2nc(NCc3cccc(C(F)(F)F)c3)nc3[nH]cnc23)cc1', 'rule met'),
  ('N#Cc1c(O)c2c(-c3ccc(-c4ccccc4O)cc3)csc2[nH]c1=O', 'rule met'),
  ('Cc1cc(C(C)(C)CC(C)(C)C)ccc1OCCOCC[N+](C)(C)Cc1ccccc1.[Cl-] [METHYLBENZETHONIUM CHLORIDE]', 'rule met'),
  ('O=c1c(O)c(-c2ccc(O)c(O)c2)oc2cc(O)cc(O)c12 [Quercetin dihydrate]', 'rule met'),
  ('CCN(CC)CCOc1ccc(C(=C(Cl)c2ccccc2)c2ccccc2)cc1 [Clomifene citrate]', 'rule met'),
  ('CO[C@H]1C[C@@H]2CC[C@@H](C)[C@@](O)(O2)C(=O)C(=O)N2CCCC[C@H]2C(=O)O[C@H]([C@H](C)C[C@@H]2CC[C@@H](O)[C@H](OC)C2)CC(=O)[C@H](C)/C=C(\C)[C@@H](O)[C@@H](OC)C(=O)[C@H](C)C[C@H](C)/C=C/C=C/C=C/1C [SIROLIMUS]', 'rule not met'),
  ('O=C(O)[C@]1(Cc2cccc(Nc3nccs3)n2)CC[C@@H](Oc2cccc(Cl)c2F)CC1', 'rule met'),
  ('CC(C)N(CCC(=O)c1ccc2ccccc2c1)Cc1ccccc1.Cl [ZM 39923 HCl]', 'rule not met'),
  ('O=C(C1CCCCC1)N1CC(=O)N2CCc3ccccc3C2C1 (stereo not shown)', 'rule met'),
  ('CCc1oc2ccccc2c1C(=O)c1cc(Br)c(O)c(Br)c1', 'rule not met');

[in] Decide: Offscreen_42hr of Cc1c(N)nc([C@H](CC(N)=O)NC[C@@H](N)C(N)=O)nc1C(=O)N[C@H](C(=O)N[C@@H](C)[C@H](O)[C@@H](C)C(=O)N[C@@H](C(=O)NCCc1nc(-c2nc(C(=O)NCCC[S+](C)C)cs2)cs1)[C@@H](C)O)C(O[C@H]1O[C@H](CO)[C@H](O)[C@@H](O)[C@H]1O[C@H]1O[C@H](CO)[C@@H](O)[C@H](OC(N)=O)[C@@H]1O)c1c[nH]cn1.O=S(=O)([O-])O (stereo partly shown) [Bleomycin sulfate] >= 0.9?
[out] rule not met

[in] Evaluate O=C([O-])c1ccccc1-c1c2cc(I)c(=O)c(I)c-2oc2c(I)c([O-])c(I)cc12.[Na+].[Na+] [ERYTHROSINE SODIUM] : Offscreen_42hr at minimum 0.9?
[out] rule met

====

# Tested on: parent strain (SAWy518)
# if value of Offscreen_24hr reaches 0.8, tag Y; if it stays below, tag N

Recorded results for 2 compounds are shown here.
INSERT INTO measurements (compound, class_assignment) VALUES
  ('O=C1NC(=O)/C(=C/c2ccc(-c3ccc(F)cc3O)o2)S1', 'Y'),
  ('O=C(/C=C/c1ccc(O)cc1)CC(=O)/C=C/c1ccc(O)cc1', 'Y');

[in] Does the compound CCN(CC)C(=S)SSC(=S)N(CC)CC [Disulfiram] have recorded Offscreen_24hr that is 0.8 or more?
[out] N

[in] Is Offscreen_24hr for CCOc1nc2cccc(C(=O)OC(C)OC(=O)OC3CCCCC3)c2n1Cc1ccc(-c2ccccc2-c2nnn[nH]2)cc1 (stereo not shown) at or above 0.8?
[out] Y

====

# Test system: parent strain (SAWy518)
Observable: Offscreen_24hr
Returns: the value as a bare number; no unit string appended.

INSERT INTO results (compound, target_under_test, observed_measurement) VALUES
  ('NCC(=O)Nc1ccc(-n2nc(C(F)(F)F)cc2-c2ccc3c(ccc4ccccc43)c2)cc1 [OSU-03012 (AR-12)]', 'parent strain (SAWy518)', 0.1608),
  ('CCN(CC)C(=O)[C@]1(c2ccccc2)C[C@@H]1CN.Cl [Milnacipran hydrochloride]', 'parent strain (SAWy518)', 0.9181),
  ('C=CCOC(Cn1ccnc1)c1ccc(Cl)cc1Cl (stereo not shown) [Enilconazole]', 'parent strain (SAWy518)', 0.8908);

[in] Provide one value: measured Offscreen_24hr of O=C1NC(=O)/C(=C\c2cccc(C(F)(F)F)c2)S1 [TCS PIM-1 4a]
[out] 0.7077

[in] Supply measured Offscreen_24hr of O=C(O)[C@]1(Cc2cccc(Nc3nccs3)n2)CC[C@@H](Oc2cccc(Cl)c2F)CC1 [MK-5108 (VX-689)] in your reply.
[out] 0.8599

[in] Indicate its recorded Offscreen_24hr; the compound in question is O=c1c(-c2ccc(O)cc2)coc2cc(O)cc(O)c12 [Genistein]
[out] 0.8948

[in] Kindly indicate its recorded Offscreen_24hr. Item: CO[C@H]1C[C@@H]2CC[C@@H](C)[C@@](O)(O2)C(=O)C(=O)N2CCCC[C@H]2C(=O)O[C@H]([C@H](C)C[C@@H]2CC[C@@H](O)[C@H](OC)C2)CC(=O)[C@H](C)/C=C(\C)[C@@H](O)[C@@H](OC)C(=O)[C@H](C)C[C@H](C)/C=C/C=C/C=C/1C [SIROLIMUS]
[out] 0.5452

[in] Identify the reported Offscreen_24hr for the following entry. O=C(/C=C/c1ccc(O)cc1)c1ccccc1 [4-hydroxychalcone, reference compound]
[out] 0.9201

[in] Note Offscreen_24hr for the compound shown: Nc1c2ccccc2nc2ccccc12 [AMINACRINE]
[out] 0.4931

[in] Supply Offscreen_24hr value. Item: O=C([O-])c1ccccc1-c1c2cc(I)c(=O)c(I)c-2oc2c(I)c([O-])c(I)cc12.[Na+].[Na+] [ERYTHROSINE SODIUM]
[out] 0.8985

====

# Test system: parent strain (SAWy518)
Please enter Yes where Offscreen_18hr is greater than or equal to 0.4, and No where it is lower.

INSERT INTO results (molecule, target_under_test, class_assignment) VALUES
  ('CCN(CC)C(=O)C1(c2ccccc2)CC1CN (centres unmarked)', 'parent strain (SAWy518)', 'Yes'),
  ('Cc1ccc(C(=O)Nc2ccc(CN3CCN(C)CC3)c(C(F)(F)F)c2)cc1C#Cc1cnc2[nH]ncc2c1', 'parent strain (SAWy518)', 'Yes'),
  ('CC[C@@H](C(=O)[C@@H](C)[C@@H](O)[C@H](C)[C@@H]1O[C@@H]([C@@H](CC)C(=O)[O-])CC[C@@H]1C)[C@H]1OC2(C=C[C@@H](O)[C@]3(CC[C@@](C)([C@H]4CC[C@](O)(CC)[C@H](C)O4)O3)O2)[C@H](C)C[C@@H]1C.[Na+] (some centres unmarked) [SALINOMYCIN, SODIUM]', 'parent strain (SAWy518)', 'No'),
  ('N.S=C(S)N1CCCC1 [Ammonium pyrrolidinedithiocarbamate]', 'parent strain (SAWy518)', 'Yes');

[in] Check the entry CSc1nc2cc(Cl)c(Oc3cccc(Cl)c3Cl)cc2[nH]1 : does Offscreen_18hr equal or exceed 0.4?
[out] No

[in] Tell me whether Offscreen_18hr is at least 0.4 here: CO[C@H]1O[C@@H]2O[C@@]3(C)CC[C@H]4[C@H](C)CC[C@@H]([C@H]1C)[C@@]24OO3
[out] No

[in] Reported Offscreen_18hr at or above 0.4? CC1=C(CC(=O)O)c2cc(F)ccc2/C1=C\c1ccc([S+](C)[O-])cc1 (centres unmarked) [Sulindac, reference compound]
[out] Yes

[in] Has N#CC[C@@H](C1CCCC1)n1cc(-c2ncnc3[nH]ccc23)cn1 a recorded Offscreen_18hr greater than or equal to 0.4?
[out] Yes

[in] Quick check: does CCCCCCCCc1ccc(CCC(N)(CO)CO)cc1.Cl have Offscreen_18hr greater than or equal to 0.4?
[out] No

[in] Check the entry CC(=O)[C@]1(O)Cc2c(O)c3c(c(O)c2[C@@H](O[C@H]2C[C@H](N)[C@H](O)[C@H](C)O2)C1)C(=O)c1ccccc1C3=O [Idarubicin] : does Offscreen_18hr equal or exceed 0.4?
[out] No

[in] Identify whether the reported Offscreen_18hr of the following molecule is 0.4 or greater: COc1cccc2c1C(=O)c1c(O)c3c(c(O)c1C2=O)C[C@@](O)(C(=O)CO)C[C@H]3O[C@H]1C[C@H](N)[C@H](O)[C@H](C)O1.Cl
[out] Yes

[in] I'd appreciate it if you could say whether CCC(Cc1c(I)cc(I)c(N)c1I)C(=O)O (centres unmarked) has Offscreen_18hr at least equal to 0.4.
[out] Yes

[in] State whether the measured Offscreen_18hr reaches 0.4, counting equality as reaching it, for CO[C@H]1C[C@@H]2CC[C@@H](C)[C@@](O)(O2)C(=O)C(=O)N2CCCC[C@H]2C(=O)O[C@H]([C@H](C)C[C@@H]2CC[C@@H](O)[C@H](OC)C2)CC(=O)[C@H](C)/C=C(\C)[C@@H](O)[C@@H](OC)C(=O)[C@H](C)C[C@H](C)/C=C/C=C/C=C/1C [Rapamycin]
[out] No

[in] // inclusive: Offscreen_18hr at least 0.4? input: O=C(O)Cc1ccc(-c2ccccc2)cc1
[out] Yes
